These measurements were taken from patent US20170189510A1.

target: HLA-A*24 (human); test: UV-ligand exchange, anti-b2m ELISA
This section presents binders with their documented peptide exchange yield values.
Metric: peptide exchange yield

{"Binder": "PYRLIFEKF [peptide SEQ ID No 281 …]", "Value Observed": "20 to 49%"}
{"Binder": "YFDKVVTL [peptide SEQ ID No 215 YFDKVVTL]", "Value Observed": "20 to 49%"}
{"Binder": "TYLRDQHFL [peptide SEQ ID No 187 …]", "Value Observed": "> 75%"}
{"Binder": "YFIDSTNLKTHF [peptide SEQ ID No 269 …]", "Value Observed": "50 to 75%"}
{"Binder": "LYHDIFSRL [peptide SEQ ID No 271 …]", "Value Observed": "> 75%"}
{"Binder": "LFIPSSKLLFL [peptide SEQ ID No 171 …]", "Value Observed": "50 to 75%"}
{"Binder": "TYSVSFPMF [peptide SEQ ID No 195 …]", "Value Observed": "> 75%"}
{"Binder": "LYLKLWNLI [peptide SEQ ID No 214 …]", "Value Observed": "50 to 75%"}
